// provenance: ChEMBL document CHEMBL3822389

- RUN DESCRIPTION: Cytotoxicity against human SF295 cells after 72 hrs by MTT assay
- Format: functional, cell-based, SF-295
- PARTICULARS: sf-295
pIC50: −log10 of the molar value.
pIC50 below 5 gives no (0); pIC50 at or above it gives yes (1).

COMPOUND | CLASS
CCCCNC(C1=C(O)C(=O)c2ccccc2C1=O)c1cc(Br)ccc1O (stereo not drawn) | no (0)

q: hey, is pIC50 for this one >= 5? CCCCNC(C1=C(O)C(=O)c2ccccc2C1=O)c1ccccc1O (stereo not drawn)
a: no (0)

----------
- RUN DESCRIPTION: Cytotoxicity against human HL60 cells after 72 hrs by MTT assay
- Assay type: functional, cell-based, HL-60
- PARTICULARS: Homo sapiens, HL-60, 72 h
pIC50: −log10 of the molar value.
Entries and their pIC50

COMPOUND | pIC50
O=C1C(O)=C(C(Nc2ccccc2)c2ccccn2)C(=O)c2ccccc21 (centres undefined) | < 4.40
CC(C)(C)OC(=O)NCCNC(C1=C(O)C(=O)c2ccccc2C1=O)c1ccc(Cl)cc1Cl (centres undefined) | < 4.40
CC(C)(C)OC(=O)NCCNCC1=C(O)C(=O)c2ccccc2C1=O | < 4.40

Now examine the next entry.
Per the records, this compound ( O=C1C(O)=C(C(NCc2ccco2)c2ccccc2O)C(=O)c2ccccc21 (centres undefined) ) has pIC50 equal to 5.96

----------
The entries below come with measured pIC50 values attached.
- RUN DESCRIPTION: Cytotoxicity against human SF295 cells after 72 hrs by MTT assay
- Type: functional, cell-based, SF-295
- PARTICULARS: Homo sapiens, SF-295, 72 h
pIC50: −log10 of the molar value.

COMPOUND | pIC50
CCCCCCCNC(C1=C(O)C(=O)c2ccccc2C1=O)c1ccc(Cl)cc1Cl (centres undefined) | < 4.40
CCCCCCCCCCNC(C1=C(O)C(=O)c2ccccc2C1=O)c1ccccn1 (centres undefined) | 5.77
O=C1C(O)=C(C(NCc2ccccc2)c2cc(Br)ccc2O)C(=O)c2ccccc21 (centres undefined) | 4.76
CC(C)(C)OC(=O)NCCNC(C1=C(O)C(=O)c2ccccc2C1=O)c1ccc([N+](=O)[O-])cc1 (centres undefined) | < 4.40
COc1ccc(NC(C2=C(O)C(=O)c3ccccc3C2=O)c2ccccn2)cc1 (centres undefined) | < 4.40
CC(C)(C)OC(=O)NCCCNC(C1=C(O)C(=O)c2ccccc2C1=O)c1cccc(O)c1 (centres undefined) | < 4.40

pIC50 in this record for O=C1C(O)=C(C(NCCCCl)c2cc(Br)ccc2O)C(=O)c2ccccc21 (centres undefined) : 4.54

In plain terms, O=C1C(O)=C(CNCCCCl)C(=O)c2ccccc21 has a documented pIC50 of < 4.40

Measured pIC50, O=C1C(O)=C(C(NCc2ccco2)c2ccccn2)C(=O)c2ccccc21 (centres undefined) : 5.48

Given item CCCCCCCNC(C1=C(O)C(=O)c2ccccc2C1=O)c1ccccc1O (centres undefined) , the value recorded as its pIC50 is 4.72

Kindly note the recorded pIC50 for O=C1C(O)=C(C(NCc2ccccc2)c2ccc([N+](=O)[O-])cc2)C(=O)c2ccccc21 (centres undefined) , which is < 4.40

Form: compound = O=C1C(O)=C(C(NCc2ccccc2)c2ccccc2O)C(=O)c2ccccc21 (centres undefined) ; pIC50 = 4.64

// pIC50 value for CCCCCCCCCCNC(C1=C(O)C(=O)c2ccccc2C1=O)c1cc(Br)ccc1O (centres undefined) : < 4.40

Record O=C1C(O)=C(C(NCCCCl)c2cccc(O)c2)C(=O)c2ccccc21 (centres undefined) , field pIC50: < 4.40

Entry under test: CCCCNC(C1=C(O)C(=O)c2ccccc2C1=O)c1cccc(O)c1 (centres undefined) . Its pIC50 was < 4.40

Noted for CC(C)(C)OC(=O)NCCNC(C1=C(O)C(=O)c2ccccc2C1=O)c1cccc(O)c1 (centres undefined) : its pIC50 reads < 4.40

So for O=C1C(O)=C(C(NCCCCl)c2ccc(Cl)cc2Cl)C(=O)c2ccccc21 (centres undefined) , the logged pIC50 turned out to be < 4.40

Please fill in: pIC50 reported for CC(C)(C)OC(=O)NCCCNC(C1=C(O)C(=O)c2ccccc2C1=O)c1ccccc1 (centres undefined) = < 4.40

Looking up CC(C)(C)OC(=O)NCCCNCC1=C(O)C(=O)c2ccccc2C1=O , I see its pIC50 listed as < 4.40
